# system-tested: T1, 4H607-bH
# T1 chain: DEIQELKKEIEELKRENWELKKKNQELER
# assay-overview: two-hybrid library CCNG1;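 also: natural log of median RNA to DNA barcode read ratio; higher means stronger binding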
value-kind: interaction score

>>> print(df.to_string())
                                     binder  reported_result
0  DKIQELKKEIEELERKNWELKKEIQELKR [4H2618-bH]            -1.63
1  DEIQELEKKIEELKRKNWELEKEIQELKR [4H370-bH]           -0.999
2  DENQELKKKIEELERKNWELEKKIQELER [4H1845-bH]            -2.75
